These data points were gathered from patent US9296741B2.

# testedSystem: human BRD4 second bromodomain (BDII_E352-M457) (Homo sapiens (Human), UniProt O60885)
# protocolText: TR-FRET bromodomain binding assay, BRD4 second bromodomain
readoutName: pKi
Answers are plain numbers, as −log10 of the molar value.

Give pKi for each of the items listed below.
1. CN(C)C(=O)Cc1ccc(OCc2ccccc2)c(-c2cn(C)c(=O)c3[nH]ccc23)c1 [Example 47]
2. Cn1cc(-c2cc(S(=O)(=O)N3CCCC3)ccc2OCC2CC2(F)F)c2cc[nH]c2c1=O (stereo not shown) [Example 307]
3. CCS(=O)(=O)C(C)(C)c1ccc(Oc2ccc(F)cc2F)c(-c2cn(C)c(=O)c3[nH]ccc23)c1 [Example 298]
4. Cn1cc(-c2cc(S(C)(=O)=O)ccc2OC2CCCC2)c2cc[nH]c2c1=O [Example 216]
5. Cn1cc(-c2cc(CN3CCCS3(=O)=O)ccc2Oc2ccccc2)c2cc[nH]c2c1=O [Example 41]
6. CN(C)S(=O)(=O)Nc1ccc(Oc2ccccc2)c(-c2cn(C)c(=O)c3[nH]ccc23)c1 [Example 22]
7. Cn1cc(-c2cc(S(C)(=O)=O)ccc2OCCN2CCNC2=O)c2cc[nH]c2c1=O [Example 218]
8. Cn1cc(-c2cc(S(N)(=O)=O)cnc2OCC2CC2)c2cc[nH]c2c1=O [Example 207]

[out]
6.69
8.54
8.51
8.74
9.29
9.00
7.16
8.74

----------
# protocolText: Human liver microsome stability assay
# Format: in vitro ADME
# measurementSetup: both sexes; human liver microsomes, 0.5 μM test compound, 0.25 mg/mL microsomal protein, pH 7.4, 37° C.; read-out: Stability in human liver microsomes (t1/2 in minutes)
readoutName: half-life at 0.5 μM

[in] // lookup half-life at 0.5 μM for Cn1cc(-c2cc(C3=CCNCC3)ccc2OCC2CC2)c2cc[nH]c2c1=O [Example 340]
[out] > 2 h

----------
Answer each item with its documented half-life at 0.5 μM.
# protocolText: Human liver microsome stability assay
# Format: in vitro ADME
# measurementSetup: both sexes, human, microsomes, pH 7.4

Give half-life at 0.5 μM for each of the items listed below.
1. Cn1cc(-c2cc(NS(C)(=O)=O)ccc2OC2CCOCC2)c2cc[nH]c2c1=O
2. CCS(=O)(=O)N(CC1CC1)c1ccc(Oc2ccc(F)cc2F)c(-c2cn(C)c(=O)c3[nH]ccc23)c1
3. Cn1cc(-c2cc(S(C)(=O)=O)ccc2Oc2cccc(C#N)c2)c2cc[nH]c2c1=O
4. CCCS(=O)(=O)Nc1ccc(OC2CCCOC2)c(-c2cn(C)c(=O)c3[nH]ccc23)c1 (stereo not shown)
5. CCS(=O)(=O)c1ccc(OC2CCC(=O)CC2)c(-c2cn(C)c(=O)c3[nH]ccc23)c1
6. CCS(=O)(=O)c1ccc(OC2CCC(F)(F)CC2)c(-c2cn(C)c(=O)c3[nH]ccc23)c1
7. Cn1cc(-c2cc(C(=O)NC3CCCC3)ccc2Oc2ccccc2)c2cc[nH]c2c1=O
8. Cn1cc(-c2cc(S(N)(=O)=O)cnc2Oc2ccc(F)cc2F)c2cc[nH]c2c1=O

[out]
["> 120 min", "2 min", "> 120 min", "39 min", "94 min", "86 min", "10 min", "> 120 min"]

----------
# testedSystem: human BRD4 second bromodomain (BDII_E352-M457) (Homo sapiens (Human))
# protocolText: TR-FRET bromodomain binding assay, BRD4 second bromodomain
readoutName: Ki (nM)
Answers are plain numbers, in nM.

Give Ki for each of the items listed below.
1. Cn1cc(-c2cc(S(=O)(=O)N3CCC(O)CC3)ccc2OCC2CC2)c2cc[nH]c2c1=O
2. CN(C)S(=O)(=O)c1cnc(NCC2CC2)c(-c2cn(C)c(=O)c3[nH]ccc23)c1
3. Cn1cc(-c2cc(C(=O)NCc3ccccn3)ccc2Oc2ccc(F)cc2F)c2cc[nH]c2c1=O
4. Cn1cc(-c2cc(S(C)(=O)=O)ccc2OCC2CC2)c2cc[nH]c2c1=O

[out]
[12.9, 3.7, 45.6, 9.7]
